# Tested on: 843782-103-R-J1-PDC complex spheroid viability
# EXPERIMENT SUMMARY: Anticancer human tumor 843782-103-R-J1-PDC patient-derived lung adenocarcinoma cell line growth inhibition [RAS]; active = viability on the fitted dose curve at most 10% of control; inactive = the rest
# DETAILS: second compound 0.003 µM; first compound 0.1 µM
Pick from 1.0 (active), 0.0 (inactive) when you respond.

Examples from the recorded data:
CCN1CCN(Cc2ccc(Nc3ncc(F)c(-c4cc(F)c5nc(C)n(C(C)C)c5c4)n3)nc2)CC1 + CCn1c(-c2cc(N3CCN(C)CC3)cnc2C(C)OC)c2c3cc(ccc31)-c1csc(n1)CC(NC(=O)C1CC1C)C(=O)N1CCCC(N1)C(=O)OCC(C)(C)C2; 0.0
C=CC(=O)Nc1cc(Nc2nccc(-c3cn(C)c4ccccc34)n2)c(OC)cc1N(C)CCN(C)C + CCn1c(-c2cc(N3CCN(C)CC3)cnc2C(C)OC)c2c3cc(ccc31)-c1csc(n1)CC(NC(=O)C1CC1C)C(=O)N1CCCC(N1)C(=O)OCC(C)(C)C2; 0.0
Nc1ccn(C2OC(CO)C(O)C2(F)F)c(=O)n1 (stereo not given) + CCn1c(-c2cccnc2C(C)OC)c2c3cc(ccc31)N1CCOC(CC(NC(=O)C(C(C)C)N(C)C(=O)C3(F)CCN(C(=O)C#CC(C)(C)N(C)C)CC3)C(=O)N3CCCC(N3)C(=O)OCC(C)(C)C2)C1; 1.0

Could you please tell me the result logged for Cc1nc(N2CCC3(CC2)COC(C)C3N)c(CO)nc1Sc1ccnc(N)c1Cl (stereo not given) + CCn1c(-c2cccnc2C(C)OC)c2c3cc(ccc31)N1CCOC(CC(NC(=O)C(C(C)C)N(C)C(=O)C3(F)CCN(C(=O)C#CC(C)(C)N(C)C)CC3)C(=O)N3CCCC(N3)C(=O)OCC(C)(C)C2)C1 in this assay?
0.0

Could you please tell me the result logged for CC(C)n1nc(-c2ccc3oc(N)nc3c2)c2c(N)ncnc21 + CCn1c(-c2cccnc2C(C)OC)c2c3cc(ccc31)N1CCOC(CC(NC(=O)C(C(C)C)N(C)C(=O)C3(F)CCN(C(=O)C#CC(C)(C)N(C)C)CC3)C(=O)N3CCCC(N3)C(=O)OCC(C)(C)C2)C1 in this assay?
0.0

====

List of pIC50 values.
# System: 843782-103-R-J1-PDC complex spheroid viability
# EXPERIMENT SUMMARY: Anticancer human tumor 843782-103-R-J1-PDC cell line growth inhibition [RAS];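 note: viability read after seven days of compound exposure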
# DETAILS: curve of first compound; second compound 0.3 µM
pIC50: −log10 of the molar value.

NC1c2ccccc2OC12CCN(c1cnc3c(N4CCCc5ncccc54)n[nH]c3n1)CC2 (centres undefined) + CCn1c(-c2cccnc2C(C)OC)c2c3cc(ccc31)N1CCOC(CC(NC(=O)C(C(C)C)N(C)C(=O)C3(F)CCN(C(=O)C#CC(C)(C)N(C)C)CC3)C(=O)N3CCCC(N3)C(=O)OCC(C)(C)C2)C1; > 7.50

So what does the record say about pIC50 for Nc1ccn(C2OC(CO)C(O)C2(F)F)c(=O)n1 (centres undefined) + CCn1c(-c2cc(N3CCN(C)CC3)cnc2C(C)OC)c2c3cc(ccc31)-c1csc(n1)CC(NC(=O)C1CC1C)C(=O)N1CCCC(N1)C(=O)OCC(C)(C)C2 ?
> 8.50

So what does the record say about pIC50 for CCc1c2c(nc3ccc(O)cc13)-c1cc3c(c(=O)n1C2)COC(=O)[C@]3(O)CC + CCn1c(-c2cc(N3CCN(C)CC3)cnc2C(C)OC)c2c3cc(ccc31)-c1csc(n1)CC(NC(=O)C1CC1C)C(=O)N1CCCC(N1)C(=O)OCC(C)(C)C2 ?
> 9.02

So what does the record say about pIC50 for CC(C)NCC(C(=O)N1CCN(c2ncnc3c2C(C)CC3O)CC1)c1ccc(Cl)cc1 (centres undefined) + CCn1c(-c2cc(N3CCN(C)CC3)cnc2C(C)OC)c2c3cc(ccc31)-c1csc(n1)CC(NC(=O)C1CC1C)C(=O)N1CCCC(N1)C(=O)OCC(C)(C)C2 ?
> 7.50

====

# Test system: 843782-103-R-J1-PDC complex spheroid viability
# EXPERIMENT SUMMARY: Anticancer human tumor 843782-103-R-J1-PDC cell line growth inhibition [RAS];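 note: viability read after seven days of compound exposure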
# DETAILS: curve of first compound; second compound 3.16 µM
ASSAY READOUT: IC50

Observe how each entry below is paired with its result.
CC(=O)OC12COC1CC(O)C1(C)C(=O)C(O)C3=C(C)C(OC(=O)C(O)C(NC(=O)OC(C)(C)C)c4ccccc4)CC(O)(C(OC(=O)c4ccccc4)C21)C3(C)C (centres undefined) + C#Cc1c(F)ccc2cc(O)cc(-c3ncc4c(N5CC6CCC(C5)N6)nc(OCC56CCCN5CC(F)C6)nc4c3F)c12; < 31.6 nM
C[C@@H](NC(=O)c1ncnc(N)c1Cl)c1ncc(C(=O)Nc2cc(C(F)(F)F)c(Cl)cn2)s1 + C#Cc1c(F)ccc2cc(O)cc(-c3ncc4c(N5CC6CCC(C5)N6)nc(OCC56CCCN5CC(F)C6)nc4c3F)c12; > 10000 nM
C=CC(=O)N1CCN(c2nc(OCC3CCCN3C)nc3c(F)c(-c4nc(N)cc(C)c4C(F)(F)F)c(Cl)cc23)C(C)C1 (centres undefined) + C#Cc1c(F)ccc2cc(O)cc(-c3ncc4c(N5CC6CCC(C5)N6)nc(OCC56CCCN5CC(F)C6)nc4c3F)c12; > 1000 nM

So what does the record say about IC50 for NC1c2ccccc2OC12CCN(c1cnc3c(N4CCCc5ncccc54)n[nH]c3n1)CC2 (centres undefined) + C#Cc1c(F)ccc2cc(O)cc(-c3ncc4c(N5CC6CCC(C5)N6)nc(OCC56CCCN5CC(F)C6)nc4c3F)c12 ?
< 31.6 nM

====

# Tested on: 843782-103-R-J1-PDC complex spheroid viability
# EXPERIMENT SUMMARY: Anticancer human tumor 843782-103-R-J1-PDC cell line growth inhibition [RAS]; active means viability on the fitted dose curve at most 10% of control; inactive means the rest;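 note: viability read after seven days of compound exposure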
# DETAILS: second compound 0.00949 µM; first compound 1 µM
Pick from active, inactive when you respond.

CCN1CCN(Cc2ccc(Nc3ncc(F)c(-c4cc(F)c5nc(C)n(C(C)C)c5c4)n3)nc2)CC1 + CCn1c(-c2cc(N3CCN(C)CC3)cnc2C(C)OC)c2c3cc(ccc31)-c1csc(n1)CC(NC(=O)C1CC1C)C(=O)N1CCCC(N1)C(=O)OCC(C)(C)C2; inactive
CC(Nc1ccc2c(c1)OCCn1cc(N3C(=O)OCC3C(F)F)nc1-2)C(N)=O (stereo unspecified) + CCn1c(-c2cc(N3CCN(C)CC3)cnc2C(C)OC)c2c3cc(ccc31)-c1csc(n1)CC(NC(=O)C1CC1C)C(=O)N1CCCC(N1)C(=O)OCC(C)(C)C2; inactive
CC(=O)OC12COC1CC(O)C1(C)C(=O)C(O)C3=C(C)C(OC(=O)C(O)C(NC(=O)OC(C)(C)C)c4ccccc4)CC(O)(C(OC(=O)c4ccccc4)C21)C3(C)C (stereo unspecified) + CCn1c(-c2cccnc2C(C)OC)c2c3cc(ccc31)N1CCOC(CC(NC(=O)C(C(C)C)N(C)C(=O)C3(F)CCN(C(=O)C#CC(C)(C)N(C)C)CC3)C(=O)N3CCCC(N3)C(=O)OCC(C)(C)C2)C1; active
CC(C)NCC(C(=O)N1CCN(c2ncnc3c2C(C)CC3O)CC1)c1ccc(Cl)cc1 (stereo unspecified) + CCn1c(-c2cccnc2C(C)OC)c2c3cc(ccc31)N1CCOC(CC(NC(=O)C(C(C)C)N(C)C(=O)C3(F)CCN(C(=O)C#CC(C)(C)N(C)C)CC3)C(=O)N3CCCC(N3)C(=O)OCC(C)(C)C2)C1; inactive

Could you please tell me the result logged for O=C(c1ccc(F)c(F)c1Nc1ccc(I)cc1F)N1CC(O)([C@@H]2CCCCN2)C1 + CCn1c(-c2cc(N3CCN(C)CC3)cnc2C(C)OC)c2c3cc(ccc31)-c1csc(n1)CC(NC(=O)C1CC1C)C(=O)N1CCCC(N1)C(=O)OCC(C)(C)C2 in this assay?
active

Could you please tell me the result logged for NC1c2ccccc2OC12CCN(c1cnc3c(N4CCCc5ncccc54)n[nH]c3n1)CC2 (stereo unspecified) + CCn1c(-c2cc(N3CCN(C)CC3)cnc2C(C)OC)c2c3cc(ccc31)-c1csc(n1)CC(NC(=O)C1CC1C)C(=O)N1CCCC(N1)C(=O)OCC(C)(C)C2 in this assay?
inactive

====

# Test system: 843782-103-R-J1-PDC complex spheroid viability
# EXPERIMENT SUMMARY: Anticancer human tumor 843782-103-R-J1-PDC cell line growth inhibition [RAS];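 note: viability read after seven days of compound exposure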
# DETAILS: curve of first compound; second compound 0.0316 µM
List of IC50 values.

Observe how each entry below is paired with its result.
CC(=O)OC12COC1CC(O)C1(C)C(=O)C(O)C3=C(C)C(OC(=O)C(O)C(NC(=O)OC(C)(C)C)c4ccccc4)CC(O)(C(OC(=O)c4ccccc4)C21)C3(C)C (configuration not stated) + C#Cc1c(F)ccc2cc(O)cc(-c3ncc4c(N5CC6CCC(C5)N6)nc(OCC56CCCN5CC(F)C6)nc4c3F)c12; < 31.6 nM
CC(Nc1ccc2c(c1)OCCn1cc(N3C(=O)OCC3C(F)F)nc1-2)C(N)=O (configuration not stated) + C#Cc1c(F)ccc2cc(O)cc(-c3ncc4c(N5CC6CCC(C5)N6)nc(OCC56CCCN5CC(F)C6)nc4c3F)c12; 457 nM
C=CC(=O)N1CCN(c2nc(OCC3CCCN3C)nc3c(F)c(-c4nc(N)cc(C)c4C(F)(F)F)c(Cl)cc23)C(C)C1 (configuration not stated) + C#Cc1c(F)ccc2cc(O)cc(-c3ncc4c(N5CC6CCC(C5)N6)nc(OCC56CCCN5CC(F)C6)nc4c3F)c12; > 1000 nM
C[C@@H](NC(=O)c1ncnc(N)c1Cl)c1ncc(C(=O)Nc2cc(C(F)(F)F)c(Cl)cn2)s1 + C#Cc1c(F)ccc2cc(O)cc(-c3ncc4c(N5CC6CCC(C5)N6)nc(OCC56CCCN5CC(F)C6)nc4c3F)c12; > 10000 nM
CC1(C)CCC(Nc2ncc(C(F)(F)F)c(-c3c[nH]c4c(P(C)(C)=O)c(C#N)ccc34)n2)CN1 (configuration not stated) + C=CC(=O)N1CCN(c2nc(OCC3CCCN3C)nc3c(F)c(-c4nc(N)cc(C)c4C(F)(F)F)c(Cl)cc23)C(C)C1; 7.99 nM
CCc1c2c(nc3ccc(O)cc13)-c1cc3c(c(=O)n1C2)COC(=O)[C@]3(O)CC + C=CC(=O)N1CCN(c2nc(OCC3CCCN3C)nc3c(F)c(-c4nc(N)cc(C)c4C(F)(F)F)c(Cl)cc23)C(C)C1; 1.56 nM

Now consider a different compound.
So what does the record say about IC50 for CC(C)n1nc(-c2ccc3oc(N)nc3c2)c2c(N)ncnc21 + C#Cc1c(F)ccc2cc(O)cc(-c3ncc4c(N5CC6CCC(C5)N6)nc(OCC56CCCN5CC(F)C6)nc4c3F)c12 ?
38.3 nM
